# Test system: Mus musculus
# TEST DETAILS: Effect on Arachidonic Acid-Induced Mouse Ear Inflammation expressed as percent inhibition of MPO at 50 mg/kg of oral administration
# Type: functional
inhibition in vivo at 50 mg/kg values for the molecules below.
MEASUREMENT LABEL: inhibition in vivo at 50 mg/kg (%)

>>> df
                                   molecule  scale_unit  value
0  COc1ccc(CCCCOc2ccc(CSc3c(Cl)cccc3Cl)nc2/C=C/C(=O)O)cc1           %     54
1  COc1ccc(CCCCCCCCOc2ccc(CSCc3cccc(C(=O)O)c3)nc2/C=C/C(=O)O)cc1           %      0
2  COc1ccc(CCCCOc2ccc(CSc3ccccc3)nc2/C=C/C(=O)O)cc1           %     26
3  COc1ccc(CCCCCCCCOc2ccc(C[S+]([O-])c3cccc(N)c3)nc2/C=C/C(=O)O)cc1 (centres undefined)           %      0

* * *

# STUDY SYSTEM: Leukotriene B4 receptor 1 (Homo sapiens)
# Sequence (Q15722 whole entry): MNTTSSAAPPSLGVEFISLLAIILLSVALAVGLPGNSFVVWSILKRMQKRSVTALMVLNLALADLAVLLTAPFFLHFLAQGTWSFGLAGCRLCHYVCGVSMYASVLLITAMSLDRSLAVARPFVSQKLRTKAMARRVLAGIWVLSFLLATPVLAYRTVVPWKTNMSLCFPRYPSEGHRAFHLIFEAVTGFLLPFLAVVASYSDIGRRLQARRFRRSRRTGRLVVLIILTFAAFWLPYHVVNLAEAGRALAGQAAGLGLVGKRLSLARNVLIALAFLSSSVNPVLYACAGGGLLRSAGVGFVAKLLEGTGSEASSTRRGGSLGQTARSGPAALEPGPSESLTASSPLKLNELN
# TEST DETAILS: Inhibition of [3H]LTB4 binding to human neutrophils
pKi: −log10 of the molar value.
MEASUREMENT LABEL: pKi

>>> df
                                   compound                              study_system  value
0  O=C(O)/C=C/c1nc(CSc2c(Cl)cccc2Cl)ccc1OCCc1ccc(Cl)cc1  Leukotriene B4 receptor 1 (Homo sapiens)   8.89
1  O=C(O)/C=C/c1nc(CSc2c(Cl)cccc2Cl)ccc1OCCc1ccccc1 [TICOLUBANT]  Leukotriene B4 receptor 1 (Homo sapiens)   9.11
2  COc1ccc(CCOc2ccc(CSc3c(Cl)cccc3Cl)nc2/C=C/C(=O)O)cc1  Leukotriene B4 receptor 1 (Homo sapiens)   8.92
3  O=C(O)/C=C/c1nc(CSc2c(Cl)cccc2Cl)ccc1OCCc1ccc(F)cc1  Leukotriene B4 receptor 1 (Homo sapiens)   8.82
4  O=C(O)/C=C/c1nc(CSc2c(Cl)cccc2Cl)ccc1OCCCc1ccccc1  Leukotriene B4 receptor 1 (Homo sapiens)   8.85
5  COc1ccc(CCCCOc2ccc(CSc3ccccc3)nc2/C=C/C(=O)O)cc1  Leukotriene B4 receptor 1 (Homo sapiens)   8.55
6  COc1ccc(CCCCOc2ccc(CSc3c(Cl)cccc3Cl)nc2/C=C/C(=O)O)cc1  Leukotriene B4 receptor 1 (Homo sapiens)   8.82
7  O=C(O)/C=C/c1nc(CSc2c(Cl)cccc2Cl)ccc1OCc1ccc(F)cc1  Leukotriene B4 receptor 1 (Homo sapiens)   7.92

* * *

# STUDY SYSTEM: Cysteinyl leukotriene receptor 1 (Homo sapiens, UniProt Q9Y271)
# Sequence (Q9Y271 whole entry, looked up): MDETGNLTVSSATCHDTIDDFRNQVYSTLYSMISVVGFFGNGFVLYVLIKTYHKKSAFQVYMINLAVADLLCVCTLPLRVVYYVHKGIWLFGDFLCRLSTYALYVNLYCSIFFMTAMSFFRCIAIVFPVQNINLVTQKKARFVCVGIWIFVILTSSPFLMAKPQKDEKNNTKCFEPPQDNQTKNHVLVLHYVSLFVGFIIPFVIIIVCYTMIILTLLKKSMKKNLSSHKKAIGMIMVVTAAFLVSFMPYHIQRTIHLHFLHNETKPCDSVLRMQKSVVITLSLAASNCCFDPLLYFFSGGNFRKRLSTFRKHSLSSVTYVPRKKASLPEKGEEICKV
MEASUREMENT LABEL: IC50 (µM)

In [3]: df
Out[3]:
                                   molecule  measurement_label  value
0  O=C(O)/C=C/c1nc(CSc2c(Cl)cccc2Cl)ccc1OCCc1ccccc1 [TICOLUBANT]               IC50   16.8

* * *

# Species on record: Homo sapiens
# TEST DETAILS: Concentration required to block LTB4 induced degranulation in human PMNs
# Format: functional
MEASUREMENT LABEL: IC50

>>> print(df.to_string())
                  compound_structure_string     value
0  O=C(O)/C=C/c1nc(CSc2c(Cl)cccc2Cl)ccc1OCCc1ccccc1  0.053 µM

Hello, the source for this data is ChEMBL document CHEMBL1129796, in case you need it.
